Each recorded value in this set is attributed to patent US20250326807A1.

# STUDY TARGET: T1, Recombinantly expressed fused calprotectin (His6-linker-S100A9-linker-S100A8), product code B-RCAL, BÜHLMANN … (human, UniProt P06702 1-114; P05109 1-93)
# T1 chain: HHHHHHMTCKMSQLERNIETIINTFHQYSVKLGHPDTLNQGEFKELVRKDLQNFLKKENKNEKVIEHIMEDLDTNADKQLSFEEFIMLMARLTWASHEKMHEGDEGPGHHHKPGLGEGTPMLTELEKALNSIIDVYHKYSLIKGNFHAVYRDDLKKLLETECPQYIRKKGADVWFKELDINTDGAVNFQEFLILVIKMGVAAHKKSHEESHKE
# ASSAY NOTES: fluorescence polarization
# Kd per record follows
OBSERVABLE: Kd (nM)

| BINDER | NUMBER |
| --- | --- |
| GCDLAHQPCPLYKCTKCP (not fully specified; cross-linked between cysteines (linker not named); N-terminal 5(6)-carboxyfluorescein; synthesised on rink amide AM resin) | 10 |
| SCQCPWDLFSQHSLSDCCD (not fully specified; cross-linked between cysteines (linker not named); N-terminal 5(6)-carboxyfluorescein; synthesised on rink amide AM resin) | 25 |
